Reported pKi on Sodium-dependent serotonin transporter (Homo sapiens, UniProt P31645) for assorted compounds, compiled from publications.
pKi: −log10 of the molar value.
REPORTED_METRIC: pKi

- COMPOUND_STRUCTURE_STRING: "Fc1cccc(-c2ccccc2CO[C@H]2CCNC2)c1"
  TESTED_SYSTEM: "Sodium-dependent serotonin transporter (Homo sapiens, UniProt P31645)"
  CENSORING_QUALIFIER: "="
  REPORTED: 7.74
- COMPOUND_STRUCTURE_STRING: "CC(C)C[C@H](Oc1cccc(F)c1Cl)[C@H]1CCNC1"
  TESTED_SYSTEM: "Sodium-dependent serotonin transporter (Homo sapiens, UniProt P31645)"
  CENSORING_QUALIFIER: "≥"
  REPORTED: 8.00
- COMPOUND_STRUCTURE_STRING: "Clc1ccc(OC2CN(c3ccccc3)C2)c(OC2CNC2)c1"
  TESTED_SYSTEM: "Sodium-dependent serotonin transporter (Homo sapiens, UniProt P31645)"
  CENSORING_QUALIFIER: "="
  REPORTED: 5.67
- COMPOUND_STRUCTURE_STRING: "Fc1ccc(-c2cccc(-n3cccn3)c2)c(CO[C@H]2CCNC2)c1"
  TESTED_SYSTEM: "Sodium-dependent serotonin transporter (Homo sapiens, UniProt P31645)"
  CENSORING_QUALIFIER: "="
  REPORTED: 7.41
- COMPOUND_STRUCTURE_STRING: "CC(C)C[C@@H](Oc1ccc(Cl)cc1)[C@H]1CCNC1"
  TESTED_SYSTEM: "Sodium-dependent serotonin transporter (Homo sapiens, UniProt P31645)"
  CENSORING_QUALIFIER: "≥"
  REPORTED: 8.00

----------
pKi: −log10 of the molar value.
Reported pKi on Sodium-dependent serotonin transporter (Homo sapiens) for assorted molecules, compiled from publications.

- MOLECULE: "Clc1cc(Cl)cc(OC(C2CCCCC2)C2CCNC2)c1 (stereo not drawn)"
  CENSORING_QUALIFIER: "≥"
  pKi: 8.00
- MOLECULE: "CCOc1ccccc1OC(c1ccccc1)[C@H]1CCCNC1 (mixture of isomers)"
  CENSORING_QUALIFIER: "="
  pKi: 6.37
- MOLECULE: "Clc1ccc2c(-c3ccccc3)nc(N3CCNCC3)nc2c1"
  CENSORING_QUALIFIER: "="
  pKi: 6.96
- MOLECULE: "COc1ccc(Oc2nc(C)ccc2OC[C@H]2CCCNC2)cc1"
  CENSORING_QUALIFIER: "="
  pKi: 6.44
- MOLECULE: "CC(C)C(Oc1cccc(F)c1Cl)C1CCNC1 (stereo not drawn)"
  CENSORING_QUALIFIER: "≥"
  pKi: 8.00
- MOLECULE: "Cc1ccc(Oc2nc(C)ccc2OC[C@H]2CCCNC2)c(Cl)c1"
  CENSORING_QUALIFIER: "="
  pKi: 7.40
- MOLECULE: "CC(C)C[C@H](Oc1ccc(Cl)cc1)[C@@H]1CCNC1"
  CENSORING_QUALIFIER: "≥"
  pKi: 8.00
- MOLECULE: "Cc1ccc(OC[C@H]2CCCNC2)c(Oc2cc(C)c(Cl)cc2C(C)C)n1"
  CENSORING_QUALIFIER: "="
  pKi: 5.77
- MOLECULE: "CC(C)[C@H](Oc1ccc(Cl)c(Cl)c1)[C@H]1CCNC1"
  CENSORING_QUALIFIER: "≥"
  pKi: 8.00

----------
Reported Ki on Sodium-dependent serotonin transporter (Homo sapiens) for assorted compounds, compiled from publications.
REPORTED_METRIC: Ki (nM)

- COMPOUND: "O=C1CN2c3c(cccc3[C@@H]3CN(CCCC(=O)c4ccc(Cl)s4)CC[C@@H]32)N1"
  CENSORING_QUALIFIER: "="
  REPORTED: 66
- COMPOUND: "CC(C)CC(Oc1cccc(C(F)(F)F)c1Cl)C1CCNC1 (stereo not drawn)"
  CENSORING_QUALIFIER: "≤"
  REPORTED: 10
- COMPOUND: "Fc1ccc(-c2nc(N3CCNCC3)c3ccccc3n2)c(F)c1"
  CENSORING_QUALIFIER: "="
  REPORTED: 382
- COMPOUND: "COc1ccc(F)cc1O[C@@H](CC(C)C)[C@H]1CCNC1"
  CENSORING_QUALIFIER: "≤"
  REPORTED: 10
- COMPOUND: "CC(C)[C@@H](Oc1cc(Cl)cc(Cl)c1)[C@H]1CCNC1"
  CENSORING_QUALIFIER: "≤"
  REPORTED: 10
- COMPOUND: "Fc1ccc(Cl)c(-c2ccccc2CO[C@H]2CCNC2)c1"
  CENSORING_QUALIFIER: "="
  REPORTED: 218
- COMPOUND: "CC(C)C[C@@H](Oc1c(Cl)cccc1Cl)[C@H]1CCNC1"
  CENSORING_QUALIFIER: "≤"
  REPORTED: 10
- COMPOUND: "CCCC[C@@H](Oc1ccc(Cl)cc1)[C@H]1CCNC1"
  CENSORING_QUALIFIER: "≤"
  REPORTED: 10
- COMPOUND: "COc1ccc([C@H]2CN3CCC[C@H]3c3cc(OCCCN4CCCCC4)ccc32)c(OC)c1 (relative stereo)"
  CENSORING_QUALIFIER: "="
  REPORTED: 5

----------
pKi: −log10 of the molar value.
Reported pKi on UniProtKB P31645 for assorted molecules, compiled from publications.

- MOLECULE: "COc1ccc(C2CN(C)Cc3cc(OCCCN4CCC(F)CC4)ccc32)cc1F (racemic)"
  CENSORING_QUALIFIER: "="
  pKi: 8.15
- MOLECULE: "CCC[C@H](Oc1c(F)ccc(OC)c1Cl)[C@H]1CCNC1"
  CENSORING_QUALIFIER: "≥"
  pKi: 8.00
- MOLECULE: "Fc1ccc(-c2ccc(Cl)cc2)c(CO[C@H]2CCNC2)c1"
  CENSORING_QUALIFIER: "="
  pKi: 6.81
- MOLECULE: "CN1Cc2cc(OCCCN3CCC(F)CC3)ccc2C(c2cccc(Cl)c2)C1 (stereo not drawn)"
  CENSORING_QUALIFIER: "="
  pKi: 7.59
- MOLECULE: "Fc1ccc(-c2nc(NC3CNC3)nc3cc(F)ccc23)c(F)c1"
  CENSORING_QUALIFIER: "="
  pKi: 5.72
- MOLECULE: "CCC[C@H](Oc1cc(Cl)cc(Cl)c1)[C@H]1CCNC1"
  CENSORING_QUALIFIER: "≥"
  pKi: 8.00
- MOLECULE: "CNCc1cc(C#CCCN2CCN(C3CC3)CC2)ccc1Oc1ccc(SC)cc1"
  CENSORING_QUALIFIER: "="
  pKi: 8.46
- MOLECULE: "CCCC[C@@H](Oc1ccccc1Cl)[C@H]1CCNC1"
  CENSORING_QUALIFIER: "≥"
  pKi: 8.00
- MOLECULE: "COc1ccc(-c2ccccc2CO[C@H]2CCNC2)cc1OC"
  CENSORING_QUALIFIER: "="
  pKi: 6.82

----------
pKi: −log10 of the molar value.
Reported pKi on Sodium-dependent serotonin transporter (Homo sapiens, UniProt P31645) for assorted compounds, compiled from publications.
REPORTED_METRIC: pKi

- COMPOUND_STRUCTURE_STRING: "Cc1ccc(OC[C@H]2CCCNC2)c(Oc2cccc(C(F)(F)F)c2)n1"
  REPORTED_METRIC: "pKi"
  REPORTED: 6.25
- COMPOUND_STRUCTURE_STRING: "COc1ccc(-c2ccc(F)cc2CO[C@H]2CCNC2)cc1OC"
  REPORTED_METRIC: "pKi"
  REPORTED: 7.15
- COMPOUND_STRUCTURE_STRING: "CC(=O)c1ccccc1-c1ccccc1CO[C@H]1CCNC1"
  REPORTED_METRIC: "pKi"
  REPORTED: "≤ 5.00"
- COMPOUND_STRUCTURE_STRING: "CCC[C@@H](Oc1cccc(Cl)c1C)[C@@H]1CCNC1"
  REPORTED_METRIC: "pKi"
  REPORTED: "≥ 8.00"
- COMPOUND_STRUCTURE_STRING: "Clc1ccc(O[C@H](C2CC2)[C@H]2CCNC2)cc1"
  REPORTED_METRIC: "pKi"
  REPORTED: "≥ 8.00"
- COMPOUND_STRUCTURE_STRING: "CC(C)[C@H](Oc1ccc(Cl)c(Cl)c1F)[C@H]1CCNC1"
  REPORTED_METRIC: "pKi"
  REPORTED: "≥ 8.00"
- COMPOUND_STRUCTURE_STRING: "Fc1ccc(-c2ccc(Cl)c(Cl)c2)c(CO[C@H]2CCNC2)c1"
  REPORTED_METRIC: "pKi"
  REPORTED: 7.15
- COMPOUND_STRUCTURE_STRING: "Clc1cc(Cl)cc(O[C@H](C2CC2)[C@H]2CCNC2)c1"
  REPORTED_METRIC: "pKi"
  REPORTED: "≥ 8.00"
- COMPOUND_STRUCTURE_STRING: "CCC[C@H](Oc1ccc(F)cc1Cl)[C@H]1CCNC1"
  REPORTED_METRIC: "pKi"
  REPORTED: "≥ 8.00"
